Recorded percent inhibition of AR, 3000.0 nM by entry
- System: AR mRNA
- procedure-text: Dose-dependent antisense inhibition of human AR in HuVEC cells (electroporation, qRT-PCR RTS3559, IC50)
- Assay type: cell-based
- cond: Table 36; 3000.0 nM, HuVEC, electroporation, approximately 16 hours
Oligonucleotides are written 5' to 3', each unit as a sugar letter and its base; * is a phosphorothioate linkage, no mark a phosphodiester; rarer units and linkages stand in square brackets, end groups in braces. Plain capitals give the bases only. k = constrained ethyl (cEt); [5mC] = 5-methylcytosine; d = 2'-deoxy (DNA)
measured-property: percent inhibition of AR, 3000.0 nM (%)

substance	measured-property	measurement-unit	meas-value
584233 (kG*kG*kA*dT*dT*d[5mC]*dT*d[5mC]*dT*dA*d[5mC]*dA*d[5mC]*kA*k[5mC]*kA; antisense) [compound 584233]	percent inhibition of AR, 3000.0 nM	%	86
584165 (kT*k[5mC]*kA*dA*dT*d[5mC]*dT*dA*dG*dA*dT*dA*d[5mC]*k[5mC]*kA*kT; antisense) [compound 584165]	percent inhibition of AR, 3000.0 nM	%	89
584157 (kT*kT*kG*dA*dT*dG*dG*dA*dA*dT*dG*d[5mC]*dT*kG*kA*kT; antisense) [compound 584157]	percent inhibition of AR, 3000.0 nM	%	82
584263 (kT*kA*kG*dG*dG*dT*dT*dT*dG*dG*dT*d[5mC]*dA*kG*kA*kA; antisense) [compound 584263]	percent inhibition of AR, 3000.0 nM	%	90
584245 (kA*kG*kG*dT*dT*dA*dG*dG*dG*dA*dG*dT*dA*kG*kG*k[5mC]; antisense) [compound 584245]	percent inhibition of AR, 3000.0 nM	%	90
584495 (kA*kT*kG*dG*dT*dT*dG*dT*d[5mC]*d[5mC]*dT*dG*dT*kA*k[5mC]*kA; antisense) [compound 584495]	percent inhibition of AR, 3000.0 nM	%	74

Recorded values, source patent USRE48461E1.
